# Details: 348.15 K; 101.33 kPa; Liquid
Attribute: mass density
Endpoint name: mass density (kg/m3)

molecule="CCn1cc[n+](C)c1.CO[PH](=O)[O-] [1-ethyl-3-methylimidazolium methyl phosphonate]" observed_result=1159.25
molecule="CCCCCCCCOS(=O)(=O)[O-].CCn1cc[n+](C)c1 [1-ethyl-3-methylimidazolium octyl sulfate]" observed_result=1061.76
molecule=CCCCn1cc[n+](CCCC)c1.O=S(=O)([N-]S(=O)(=O)C(F)(F)F)C(F)(F)F observed_result=1295.57
molecule="CCn1cc[n+](C)c1.CS(=O)(=O)[O-] [1-ethyl-3-methylimidazolium methanesulfonate]" observed_result=1208.09
